Target: Aldehyde dehydrogenase 1A1 (Homo sapiens)
Test: qHTS Assay for Inhibitors of Aldehyde Dehydrogenase 1 (ALDH1A1)
Conditions: Purified ALDH1A1, NADH fluorescence, propionaldehyde substrate; series mostly up to 75.3 µM
Hit rate of the full screen: of about 220,000 compounds, about 16,000 (7.3%) were called active. Roughly 25% stayed inconclusive and do not appear here. The call rests on the fitted dose curve; in most records, active means well fitted inhibition curve with a large enough effect (not every such curve was filed as active); inconclusive means small, poorly fitted or top-dose-only effect, or another doubt; inactive means no such curve, though single readings can be large or run the other way. The sample holds actives, similar compounds and a random draw of the others, so the mix is not that of the screen.
Mark one answer only. Choices: 1 (yes) (active), 0 (no) (inactive)

{"compound": "O=C1CC(Sc2ncn[nH]2)C(=O)N1c1ccccc1 (centres undefined)", "label.class": "1 (yes)"}
{"compound": "CC(C)C(O)C1CCN(Cc2nc(Cc3ccccc3Cl)no2)CC1 (centres undefined)", "label.class": "0 (no)"}
{"compound": "Cc1nn2c(c1-c1ccccc1)N=C(c1ccco1)CC2c1ccccc1 (centres undefined)", "label.class": "1 (yes)"}

Then there is this compound:
In: Any idea what this test logged for "COc1ccc(-c2c(C)cc3oc(=O)cc(-c4ccccc4)c3c2C)cc1C=O" ?
Out: 1 (yes)
